System: MS2 coat protein
Experiment: apparent Kd, MS2 coat protein; higher = weaker binding; RNA-MaP array; FMN 200 µM where present
Conditions: ligand present: flavin mononucleotide; designed as: ON switch for flavin mononucleotide
ENDPOINT NAME: apparent Kd
Entry format: amount then unit.

- SEQ: "GUGCCUAACUAGAAGGCCGUAUGCAAAGCAUACGGAGGAUAUGGGUUCCGGAAACGGACAUGAGGAUCACCCAUGUGGCACAAA"
  VALUE REPORTED: "10.6 nM"

Hi there! I need apparent Kd for each item below, if you can.
1. UUAAUUAUACAAGGAUAUCUAUUGUUAUGUCGACUUACAUGAGGAUCACCCAUGUUAAUAUAUGAAGAGAAGGUGUAUUUUCAG
2. CUUUAUCACUAUACAUGAGGAUCACCCAUGUUAUCAUCAUGAGAGGAUAUCGUAUUUGGAUUUUUCGAGAAGGCUCUAUUGUAU
3. ACAUGAGGAUCACCCAUGUAGAAUGGAGAAGGUAGAUACUUGUGACUCUCCCAUGUACAUAGGACUGAGGAUAUUCUAAUAAUU
4. GCCAACGCAUGAGGAUAUGCUCCCGUUUCGGGAGCAGAAGGCAUGUCAUAAGACAUGAGGAUCACCCAUGUAGUCAAGAUGGCA
5. GUAGCUAUUAUUAUACAUGAGGAUCACCCAUGUUACAUGUGUAAGGAUAUUGAUGUUUUUAUUAUCAAGAAGGUACUAUGCUAC

1. 90 nM
2. 53.9 nM
3. 40.2 nM
4. 16.7 nM
5. 8.75 nM

Provide reported apparent Kd for each item, in the same order as listed.
1. AAUUACAUGUAGAAGGUACUUAAUUAAGUGUUGUAAGGAUAUACCAAUUUAUUAGAUUUAAAGAUACAUGAGGAUCACCCAUGU
2. GGUAGAAACAUUAACAUGAGGAUCACCCAUGUCAAAAGAAAUGAGGAUAUCGUAUACAAUGUAUAUGAGAAGGCAUGGUCUACC
3. GCGGAACAUGAGGAUCACCCAUGUGGAGGGUGUAAAGGAUAUUAUAGAGAGAAGGUAGGGUAAGAAGGUUGCUGGG
4. AAUAAUUAGUAAGGAUAUACUAGCGAUUAGCUUGUAGAAGGUACAGUCUUAUGUAUAACAAAUUAACAUGAGGAUCACCCAUGU

1. 9.76 nM
2. 5.77 nM
3. 763 nM
4. 7.39 nM

Count: 3. Required value per item: apparent Kd.
1. ACAUUUAAUACAGGAUAUGUUAGUAUACAGUUGAUUGGUUAUUACAUUAUAACAGAAGGGUAGAACAUGAGGAUCACCCAUGUA
2. CGGCGUUGUCGAGAGGAUAUGCGGUGAUGGACAUGAGGAUCACCCAUGUUAGCGAUAGCAUUACGGUAGAAGGCUCUACAGCUGC
3. UUAAUUAUACAAGGAUAUCUAUUGUAGUUUCGACUUACAUGAGGAUCACCCAUGUUAAUAUGUUUAGAGAAGGUGUAUUUUCUG

1: 73.2 nM; 2: 17 nM; 3: 49.5 nM

Identify apparent Kd associated with the sequence AGUUAAUAUCGAGGAUAUCCUCAUAAACAUGAGGAUCACCCAUGUUAACAUGGAGAAGGCGAUAUUAACAGCAUGUUACAUGCA
20.2 nM
